Attribution: PubChem BioAssay AID651581

Form field: pIC50 (one value per entry).
Molecular target: Endothelial PAS domain-containing protein 1 (Homo sapiens) (UniProt Q99814)
Experiment: HIF-2a and HIF-1a reporter inhibition panel, dose response, selectivity assay for HIF-2a inhibitor project, cell-based, luminescence (AID 651581)
Details: HIF-2a PANC, run 2
Please note pIC50 is a logarithmic value: minus log10 of concentration in mol/L. Answer with that number alone.

Observe how each entry below is paired with its result.
smiles_code=O=C(CCCc1nc(-c2ccccc2Cl)no1)NC1CCCC1 measurement_type=pIC50 number=6.06
smiles_code=Cc1c(CCC(=O)N2CCC[C@H]2C(=O)O)c(=O)oc2c(C)c3oc4c(c3cc12)CCCC4 measurement_type=pIC50 number=5.78
smiles_code=COc1ccc2nc(-c3ccc(N)cc3)[nH]c2c1 measurement_type=pIC50 number=5.75
smiles_code=Cc1c(CCC(=O)N2CCC[C@H]2C(=O)O)c(=O)oc2cc3oc4c(c3cc12)CCCC4 measurement_type=pIC50 number=5.95
smiles_code=Cc1c(CCC(=O)O)c(=O)oc2cc3oc4c(c3cc12)CCCC4 measurement_type=pIC50 number=6.21
smiles_code=CC(=O)Nc1ccc(Oc2sc(C(=O)c3ccccc3)c(N)c2C#N)cc1 measurement_type=pIC50 number=4.18
smiles_code=COc1ccc(/C=N\n2nnc3ccccc32)cc1 measurement_type=pIC50 number=5.18
smiles_code=COc1ccc(C(=O)/C=C/C(=O)N(CC(=O)NCCC(C)C)Cc2cccs2)c(O)c1 measurement_type=pIC50 number=4.20

Quick one: pIC50 of O=C(c1ccccc1)N1CCSc2sccc2C1=O ?
5.01

Quick one: pIC50 of O=C(Nc1ccc(NC(=O)c2ccco2)cc1)c1ccc2c(c1)OCCO2 ?
4.91

// lookup pIC50 for O=C(O)COc1ccc(-c2nccc(-c3ccccn3)n2)cc1
6.04

Need pIC50, item O=C(Nc1ccc(NC(=O)c2cccs2)cc1)c1ccc2c(c1)OCCO2
5.75

Returns the measured pIC50 for the input compound. Input: O=C(Nc1ccc(F)cc1)c1nc(S(=O)(=O)Cc2ccccc2)ncc1Cl
4.66

====

Target: Endothelial PAS domain-containing protein 1 (Homo sapiens) (UniProt Q99814)
Assay: HIF-2a and HIF-1a reporter inhibition panel, dose response, selectivity assay for HIF-2a inhibitor project, cell-based, luminescence (AID 651581)
Conditions: HIF-2a, mean of runs
Calls of active or inactive are those of the source. The rule behind the calls is not given here.
Respond with a class label; see active, inactive

Consider the following illustrative entries.
molecule=Cc1ccc(NC(=O)c2cc(N3C(=O)C=CC3=O)ccc2N2CCOCC2)cc1 class=active
molecule=CC(=O)Nc1ccc(NC(=O)c2ccc(-c3ccnn3C)c3ccoc23)cc1 class=active
molecule=Cc1ccc(S(=O)(=O)c2ncccc2[N+](=O)[O-])cc1 class=active
molecule=NCCN1C(=O)S/C(=C\c2ccc3c(c2)OCO3)C1=O class=active
molecule=O=C1C=C(c2ccccc2)C(=O)N1Nc1ccccc1 class=inactive
molecule=Cn1ncc2c(O/N=C(\N)c3ccc(C(C)(C)C)cc3)ncnc21 class=active
molecule=Cc1c(CCC(=O)NCCC(=O)O)c(=O)oc2c(C)c3oc4c(c3cc12)CCCC4 class=active
molecule=O=Cc1ccc(-c2cccs2)s1 class=active

Query molecule follows.
Assay outcome for Cc1cc(C(=O)Nc2cccc(C(=O)O)c2)oc1C : what was it?
active
